Target or system Voltage-gated inwardly rectifying potassium channel KCNH2 (Homo sapiens); recorded quantity pIC50.
pIC50: −log10 of the molar value.
READOUT_TYPE: pIC50

| SMILES_REPR | TESTED_ON | NUMERIC_VALUE |
| --- | --- | --- |
| CCNC(=O)Nc1cccc(CNc2cc(C(F)(F)F)cc3ncc(N4CCN(C)CC4)cc23)c1 | Voltage-gated inwardly rectifying potassium channel KCNH2 (Homo sapiens) | 4.09 |
| CC(=O)c1cccc(CNc2cc(C(F)(F)F)cc3ncc(N4CCN(C)CC4)cc23)c1 | Voltage-gated inwardly rectifying potassium channel KCNH2 (Homo sapiens) | 4.03 |

All figures here come from ChEMBL document CHEMBL3217558.
